tested on: SW1271 (Small Cell Lung Carcinoma); experiment: Bliss excess, mean over the matrix (fraction); higher = more synergy
Bliss excess listing for selected compounds.

>  <compound>
CCc1c2c(nc3ccc(O)cc13)-c1cc3c(c(=O)n1C2)COC(=O)[C@]3(O)CC [SN-38] + O=C(c1cc(Cc2n[nH]c(=O)c3ccccc23)ccc1F)N1CCN(C(=O)C2CC2)CC1 [Olaparib] (first compound max 0.3 µM, 7x7, partner max 10 µM)

>  <Bliss excess>
0.129

$$$$
>  <compound>
CC(=O)c1c(C)c2cnc(Nc3ccc(N4CCNCC4)cn3)nc2n(C2CCCC2)c1=O [Palbociclib] + Cn1cnc2c(F)c(Nc3ccc(Br)cc3Cl)c(C(=O)NOCCO)cc21 [Selumetinib] (first compound max 10 µM, 7x7, partner max 10 µM)

>  <Bliss excess>
-0.0417

$$$$
>  <compound>
CN(C)CCCOc1ccc(-c2ccc3ncc4c(c3c2)n(C2CCOCC2)c(=O)n4C)cn1 [AZD0156] + CCN(CCO)CCCOc1ccc2c(Nc3cc(CC(=O)Nc4cccc(F)c4)[nH]n3)ncnc2c1 [AZD2811] (first compound max 1 µM, 7x7, partner max 1 µM)

>  <Bliss excess>
-0.0322

$$$$
>  <compound>
COc1nnc2ccc(N3CCC(c4ccc(OCCN5CCN(C)C(=O)[C@H]5C)cc4)CC3)nn12 [AZD5153] + C=CCn1c(=O)c2cnc(Nc3ccc(N4CCN(C)CC4)cc3)nc2n1-c1cccc(C(C)(C)O)n1 [AZD1775] (first compound max 1 µM, partner max 1 µM)

>  <Bliss excess>
-0.0763

$$$$

---

system: CAL-51 (Breast Carcinoma); assay: combination Emax (second highest fraction inhibited in the dose matrix, 72 h); higher = more inhibition; extreme values may be limits of the assay
property: combination Emax

>  <compound>
Cc1cc2ncnn2cc1Nc1ncc2c(n1)n(C1CCOCC1)c(=O)n2C [AZD7648] + C[C@@H]1COCCN1C2=NC(=NC(=C2)C3(CC3)[S@](=N)(=O)C)C4=C5C=CNC5=NC=C4 [AZD6738] (first compound max 10 µM, 7x7, partner max 10 µM)

>  <property>
combination Emax

>  <reported-result>
0.923

$$$$
>  <compound>
COc1cccc(OCCCN)c1-c1cc(Nc2cnc(C#N)cn2)n[nH]1 [Prexasertib] + CN(C)CCCOc1ccc(-c2ccc3ncc4c(c3c2)n(C2CCOCC2)c(=O)n4C)cn1 [AZD0156] (first compound max 1 µM, 7x7, partner max 1 µM)

>  <property>
combination Emax

>  <reported-result>
0.946

$$$$
>  <compound>
COc1nnc2ccc(N3CCC(c4ccc(OCCN5CCN(C)C(=O)[C@H]5C)cc4)CC3)nn12 [AZD5153] + Cc1c2c(nn1C)CSCc1cc(n(C)n1)CSc1cc(c3ccccc3c1)OCCCc1c(C(=O)O)n(C)c3c-2c(Cl)ccc13 [AZD5991] (first compound max 1 µM, 7x7, partner max 1 µM)

>  <property>
combination Emax

>  <reported-result>
0.917

$$$$
>  <compound>
C[C@@H]1COCCN1c1cc(C2([S@](C)(=N)=O)CC2)nc(-c2ccnc3[nH]ccc23)n1 [AZD6738] + O=C(c1cc(Cc2n[nH]c(=O)c3ccccc23)ccc1F)N1CCN(C(=O)C2CC2)CC1 [Olaparib] (first compound max 10 µM, 7x7, partner max 10 µM)

>  <property>
combination Emax

>  <reported-result>
0.926

$$$$
>  <compound>
CN(C)CCCOc1ccc(-c2ccc3ncc4c(c3c2)n(C2CCOCC2)c(=O)n4C)cn1 [AZD0156] + C[C@@H]1COCCN1C2=NC(=NC(=C2)C3(CC3)[S@](=N)(=O)C)C4=C5C=CNC5=NC=C4 [AZD6738] (first compound max 1 µM, 7x7, partner max 10 µM)

>  <property>
combination Emax

>  <reported-result>
0.95

$$$$
>  <compound>
CC1(C)CCC(CN2CCN(c3ccc(C(=O)NS(=O)(=O)c4ccc(NCC5CCOCC5)c([N+](=O)[O-])c4)c(Oc4cnc5[nH]ccc5c4)c3)CC2)=C(c2ccc(Cl)cc2)C1 [Venetoclax] + CCN(CCO)CCCOc1ccc2c(Nc3cc(CC(=O)Nc4cccc(F)c4)[nH]n3)ncnc2c1 [AZD2811] (first compound max 1 µM, 7x7, partner max 1 µM)

>  <property>
combination Emax

>  <reported-result>
0.349

$$$$

---

tested on: NCI-H69 (Small Cell Lung Carcinoma); experiment: Bliss excess, mean over the matrix (fraction); higher = more synergy

>  <compound>
CN(C)CCCOc1ccc(-c2ccc3ncc4c(c3c2)n(C2CCOCC2)c(=O)n4C)cn1 [AZD0156] + C[C@@H]1COCCN1C2=NC(=NC(=C2)C3(CC3)[S@](=N)(=O)C)C4=C5C=CNC5=NC=C4 [AZD6738] (first compound max 1 µM, 7x7, partner max 10 µM)

>  <measured-on>
NCI-H69 (Small Cell Lung Carcinoma)

>  <Bliss excess>
-0.0233

$$$$
>  <compound>
C=CCn1c(=O)c2cnc(Nc3ccc(N4CCN(C)CC4)cc3)nc2n1-c1cccc(C(C)(C)O)n1 [AZD1775] + CCc1c2c(nc3ccc(O)cc13)-c1cc3c(c(=O)n1C2)COC(=O)[C@]3(O)CC [SN-38] (first compound max 1 µM, partner max 0.3 µM)

>  <measured-on>
NCI-H69 (Small Cell Lung Carcinoma)

>  <Bliss excess>
-0.0629

$$$$

---

test system: RT-112 (Bladder Carcinoma); assay: combination Emax (second highest fraction inhibited in the dose matrix, 72 h); higher = more inhibition; extreme values may be limits of the assay
property: combination Emax

>  <compound>
COc1cccc(OCCCN)c1-c1cc(Nc2cnc(C#N)cn2)n[nH]1 [Prexasertib] + CCc1c2c(nc3ccc(O)cc13)-c1cc3c(c(=O)n1C2)COC(=O)[C@]3(O)CC [SN-38] (first compound max 1 µM, 7x7, partner max 0.3 µM)

>  <measured-on>
RT-112 (Bladder Carcinoma)

>  <property>
combination Emax

>  <reported-result>
1

$$$$
>  <compound>
CS(=O)(=O)CCNCc1ccc(-c2ccc3ncnc(Nc4ccc(OCc5cccc(F)c5)c(Cl)c4)c3c2)o1 [Lapatinib] + NC1(c2ccc(-c3nc4ccn5c(=O)[nH]nc5c4cc3-c3ccccc3)cc2)CCC1 [MK-2206] (first compound max 10 µM, 7x7, partner max 10 µM)

>  <measured-on>
RT-112 (Bladder Carcinoma)

>  <property>
combination Emax

>  <reported-result>
0.917

$$$$
>  <compound>
Cc1c2c(nn1C)CSCc1cc(n(C)n1)CSc1cc(c3ccccc3c1)OCCCc1c(C(=O)O)n(C)c3c-2c(Cl)ccc13 [AZD5991] + CS(=O)(=O)CCNCc1ccc(-c2ccc3ncnc(Nc4ccc(OCc5cccc(F)c5)c(Cl)c4)c3c2)o1 [Lapatinib] (first compound max 1 µM, 7x7, partner max 10 µM)

>  <measured-on>
RT-112 (Bladder Carcinoma)

>  <property>
combination Emax

>  <reported-result>
0.827

$$$$
>  <compound>
CC(=O)Nc1cccc(-n2c(=O)n(C3CC3)c(=O)c3c(Nc4ccc(I)cc4F)n(C)c(=O)c(C)c32)c1 [Trametinib] + Cc1nc(-c2cn3c(n2)-c2ccc(-c4cnn(C(C)(C)C(N)=O)c4)cc2OCC3)n(C(C)C)n1 [Taselisib] (first compound max 1 µM, 7x7, partner max 10 µM)

>  <measured-on>
RT-112 (Bladder Carcinoma)

>  <property>
combination Emax

>  <reported-result>
0.884

$$$$

---

test system: HO-1-u-1 (Oral Cavity Carcinoma); test: combination Emax (second highest fraction inhibited in the dose matrix, 72 h); higher = more inhibition; extreme values may be limits of the assay
property: combination Emax

>  <compound>
C[C@@H]1COCCN1c1cc(C2([S@](C)(=N)=O)CC2)nc(-c2ccnc3[nH]ccc23)n1 [AZD6738] + C1CC(C1)(C(=O)[O-])C(=O)[O-].N.N.[Pt+2] [Carboplatin] (first compound max 10 µM, 7x7, partner max 10 µM)

>  <property>
combination Emax

>  <reported-result>
0.75

$$$$
>  <compound>
CN(C)CCCOc1ccc(-c2ccc3ncc4c(c3c2)n(C2CCOCC2)c(=O)n4C)cn1 [AZD0156] + C=CCn1c(=O)c2cnc(Nc3ccc(N4CCN(C)CC4)cc3)nc2n1-c1cccc(C(C)(C)O)n1 [AZD1775] (first compound max 1 µM, partner max 1 µM)

>  <property>
combination Emax

>  <reported-result>
0.77

$$$$
>  <compound>
N#Cc1cnc(Nc2cc(NC[C@H]3CNCCO3)c(C(F)(F)F)cn2)cn1 [SRA737] + CCc1c2c(nc3ccc(O)cc13)-c1cc3c(c(=O)n1C2)COC(=O)[C@]3(O)CC [SN-38] (first compound max 10 µM, 7x7, partner max 0.3 µM)

>  <property>
combination Emax

>  <reported-result>
0.924

$$$$
>  <compound>
CC1(C)CCC(CN2CCN(c3ccc(C(=O)NS(=O)(=O)c4ccc(NCC5CCOCC5)c([N+](=O)[O-])c4)c(Oc4cnc5[nH]ccc5c4)c3)CC2)=C(c2ccc(Cl)cc2)C1 [Venetoclax] + C[C@@H](Nc1cc(F)cc(F)c1)c1cc(C(=O)N(C)C)cc2c(=O)cc(N3CCOCC3)oc12 [AZD8186] (first compound max 1 µM, 7x7, partner max 3 µM)

>  <property>
combination Emax

>  <reported-result>
0.267

$$$$
>  <compound>
C[C@@H](Nc1cc(F)cc(F)c1)c1cc(C(=O)N(C)C)cc2c(=O)cc(N3CCOCC3)oc12 [AZD8186] + C1CN(CCC1(C(=O)N[C@@H](CCO)C2=CC=C(C=C2)Cl)N)C3=NC=NC4=C3C=CN4 [AZD5363] (first compound max 10 µM, 7x7, partner max 10 µM)

>  <property>
combination Emax

>  <reported-result>
0.752

$$$$
>  <compound>
C=CCn1c(=O)c2cnc(Nc3ccc(N4CCN(C)CC4)cc3)nc2n1-c1cccc(C(C)(C)O)n1 [AZD1775] + C[C@@H]1COCCN1C2=NC(=NC(=C2)C3(CC3)[S@](=N)(=O)C)C4=C5C=CNC5=NC=C4 [AZD6738] (first compound max 1 µM, partner max 10 µM)

>  <property>
combination Emax

>  <reported-result>
0.973

$$$$
>  <compound>
CC1(C)CCC(CN2CCN(c3ccc(C(=O)NS(=O)(=O)c4ccc(NCC5CCOCC5)c([N+](=O)[O-])c4)c(Oc4cnc5[nH]ccc5c4)c3)CC2)=C(c2ccc(Cl)cc2)C1 [Venetoclax] + CN(C)CCCOc1ccc(-c2ccc3ncc4c(c3c2)n(C2CCOCC2)c(=O)n4C)cn1 [AZD0156] (first compound max 1 µM, 7x7, partner max 1 µM)

>  <property>
combination Emax

>  <reported-result>
0.413

$$$$

From: the supplement of paper PMC11061612
